Recorded values, source patent US10023570B2.

- experimentalTarget: human KDR protein in HEK-293 cells (Homo sapiens (Human), UniProt P35968)
- Sequence (P35968 20-1356): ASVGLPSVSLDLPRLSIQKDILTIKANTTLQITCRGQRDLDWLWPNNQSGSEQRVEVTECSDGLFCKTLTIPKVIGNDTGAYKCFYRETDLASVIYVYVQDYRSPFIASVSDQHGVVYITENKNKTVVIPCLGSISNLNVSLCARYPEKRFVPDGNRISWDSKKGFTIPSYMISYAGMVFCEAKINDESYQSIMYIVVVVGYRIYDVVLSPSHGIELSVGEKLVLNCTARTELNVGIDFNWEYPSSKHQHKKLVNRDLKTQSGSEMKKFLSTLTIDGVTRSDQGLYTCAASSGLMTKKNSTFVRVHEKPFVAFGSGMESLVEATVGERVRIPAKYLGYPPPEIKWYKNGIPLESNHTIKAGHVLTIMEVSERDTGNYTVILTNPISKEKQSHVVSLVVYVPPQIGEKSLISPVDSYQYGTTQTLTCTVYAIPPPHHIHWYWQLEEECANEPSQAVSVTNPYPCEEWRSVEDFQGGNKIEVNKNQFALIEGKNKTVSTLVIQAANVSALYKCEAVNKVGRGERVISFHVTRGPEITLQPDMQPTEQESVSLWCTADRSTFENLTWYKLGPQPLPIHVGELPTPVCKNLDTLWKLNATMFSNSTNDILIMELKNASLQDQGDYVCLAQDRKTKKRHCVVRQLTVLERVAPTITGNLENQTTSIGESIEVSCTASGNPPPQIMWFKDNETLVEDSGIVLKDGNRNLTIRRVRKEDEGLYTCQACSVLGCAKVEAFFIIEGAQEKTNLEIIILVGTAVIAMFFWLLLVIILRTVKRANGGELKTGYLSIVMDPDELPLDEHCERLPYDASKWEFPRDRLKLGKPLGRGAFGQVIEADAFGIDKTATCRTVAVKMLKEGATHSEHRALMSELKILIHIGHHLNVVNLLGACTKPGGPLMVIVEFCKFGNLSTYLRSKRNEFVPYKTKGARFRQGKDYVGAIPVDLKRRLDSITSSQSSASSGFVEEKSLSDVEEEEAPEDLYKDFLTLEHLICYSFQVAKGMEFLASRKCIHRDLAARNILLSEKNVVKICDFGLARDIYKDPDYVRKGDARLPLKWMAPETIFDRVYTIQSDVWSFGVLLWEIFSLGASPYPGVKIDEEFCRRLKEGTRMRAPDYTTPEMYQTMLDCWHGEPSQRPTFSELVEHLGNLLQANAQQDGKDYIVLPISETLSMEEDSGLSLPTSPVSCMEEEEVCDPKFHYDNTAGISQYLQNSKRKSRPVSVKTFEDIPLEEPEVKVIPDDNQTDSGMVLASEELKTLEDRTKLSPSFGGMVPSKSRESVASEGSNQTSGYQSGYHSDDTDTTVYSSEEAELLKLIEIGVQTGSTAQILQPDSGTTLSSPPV
- assayName: KDR Cell Assay (phospho-KDR in HEK-293 cells expressing inducible KDR)
- Type: cell-based
- conditionContext: pKDR Cell HEK 10% FBS IC50, HEK-293 cells expressing inducible KDR, VEGF stimulated, 10% FBS
Counter-ions that a name gives are not always drawn.
Measured pIC50 of individual entries
pIC50 field: float, defined as -log10 of concentration (mol/L).

Incoming: Name the recorded pIC50 of `Cn1cc(-c2cc(-c3ccc(N4CCN(C(=O)Cc5ccccc5)CC4)nc3)c3c(C#N)cnn3c2)cn1` , assay system human KDR protein in HEK-293 cells (Homo sapiens (Human), UniProt P35968).
Outgoing: 7.09

Incoming: Name the recorded pIC50 of `CC(C)[C@@H](O)C(=O)N1CCC2(CCN(c3ccc(-c4cc(-c5cnn(C)c5)cn5ncc(C#N)c45)cn3)CC2)C1` , assay system human KDR protein in HEK-293 cells (Homo sapiens (Human), UniProt P35968).
Outgoing: 5.92

***
Incoming: Name the recorded pIC50 of `Cn1cc(-c2cc(-c3ccc(N4CCC5(CC4)CN(C(=O)c4ccccc4)C5)nc3)c3c(C#N)cnn3c2)cn1` , assay system human KDR protein in HEK-293 cells (Homo sapiens (Human), UniProt P35968).
Outgoing: 5.78

Incoming: Name the recorded pIC50 of Cn1cc(-c2cc(-c3ccc(N4CCC(C)(N)CC4)nc3)c3c(C#N)cnn3c2)cn1 [Example 202, dihydrochloride] , assay system human KDR protein in HEK-293 cells (Homo sapiens (Human), UniProt P35968).
Outgoing: 6.00

Incoming: Name the recorded pIC50 of `CC(C)NC(=O)[C@@H]1CN(c2ccc(-c3cc(-c4cnn(C)c4)cn4ncc(C#N)c34)cn2)CCO1` , assay system human KDR protein in HEK-293 cells (Homo sapiens (Human), UniProt P35968).
Outgoing: 5.34

Incoming: Name the recorded pIC50 of `Cc1cc(-c2cc(-c3ccc(N4CCN(C(=O)CC(C)(C)C)CC4)cc3)c3c(C#N)cnn3c2)n[nH]1` , assay system human KDR protein in HEK-293 cells (Homo sapiens (Human), UniProt P35968).
Outgoing: 5.76

====

- experimentalTarget: human KDR protein in HEK-293 cells (Homo sapiens (Human))
- assayName: KDR Cell Assay (phospho-KDR in HEK-293 cells expressing inducible KDR)
- Type: cell-based
- conditionContext: pKDR Cell HEK 10% FBS IC50, HEK-293 cells expressing inducible KDR, VEGF stimulated, 10% FBS
Measured IC50 of individual entries
Return type: number; implicit unit nM.

For orientation, consider the following solved cases.
Incoming: Name the recorded IC50 of CO[C@@H](C(=O)N1CCN(c2ccc(-c3cc(-c4cnn(C)c4)cn4ncc(C#N)c34)cn2)CC1)c1ccccc1 [Example 83] , assay system human KDR protein in HEK-293 cells (Homo sapiens (Human)).
Outgoing: 135

Incoming: Name the recorded IC50 of Cn1cc(-c2cc(-c3ccc(N4CCC5(CC4)CN(C(=O)Cc4ccccc4)C5)nc3)c3c(C#N)cnn3c2)cn1 [Example 218] , assay system human KDR protein in HEK-293 cells (Homo sapiens (Human)).
Outgoing: 4790

***
Incoming: Name the recorded IC50 of Cn1cc(-c2cc(-c3ccc(N4CCN([C@@H]5COC[C@H]5O)CC4)nc3)c3c(C#N)cnn3c2)cn1 [Example 159] , assay system human KDR protein in HEK-293 cells (Homo sapiens (Human)).
Outgoing: 1300

Incoming: Name the recorded IC50 of Cn1cc(-c2cc(-c3ccc(N4CCN(C(=O)CC(C)(C)O)C5(CC5)C4)nc3)c3c(C#N)cnn3c2)cn1 [Example 168] , assay system human KDR protein in HEK-293 cells (Homo sapiens (Human)).
Outgoing: 1090

====

- experimentalTarget: human KDR protein in HEK-293 cells (Homo sapiens (Human), UniProt P35968)
- assayName: KDR Cell Assay (phospho-KDR in HEK-293 cells expressing inducible KDR)
- Type: cell-based
- conditionContext: pKDR Cell HEK 10% FBS IC50, HEK-293 cells expressing inducible KDR, VEGF stimulated
Measured pIC50 of individual entries
pIC50 field: float, defined as -log10 of concentration (mol/L).

Incoming: Assign pIC50 to the following record: `Cn1cc(-c2cc(-c3ccc(N4CCN(CC5CCOCC5)CC4)nc3)c3c(C#N)cnn3c2)cn1`
Outgoing: 5.67

Incoming: Assign pIC50 to the following record: CC(C)N(CCO)C(=O)C1CCN(c2ccc(-c3cc(-c4cnn(C)c4)cn4ncc(C#N)c34)cn2)CC1 [Example 561, 2,2,2-trifluoroacetate]
Outgoing: 5.76

Incoming: Assign pIC50 to the following record: `Cn1cc(-c2cc(-c3ccc(N4CCC5(CC4)CN(C(=O)OC4CCCC4)C5)nc3)c3c(C#N)cnn3c2)cn1`
Outgoing: 6.34

Incoming: Assign pIC50 to the following record: `COc1ccc(Cn2cc(-c3cc(-c4ccc(N5CCNCC5)nc4)c4c(C#N)cnn4c3)cn2)cc1`
Outgoing: 5.83

====

- experimentalTarget: human KDR protein in HEK-293 cells (Homo sapiens (Human))
- assayName: KDR Cell Assay (phospho-KDR in HEK-293 cells expressing inducible KDR)
- Type: cell-based
- conditionContext: pKDR Cell HEK 10% FBS IC50, HEK-293 cells expressing inducible KDR, VEGF stimulated
Structures can show the parent of a compound that is named as a salt.
measure: IC50 (nM)
Return type: number; implicit unit nM.

For orientation, consider the following solved cases.
Incoming: Assign IC50 to the following record: Cn1cc(-c2cc(-c3ccc(N4CCC5(CN(Cc6ccccc6)C5)C4)nc3)c3c(C#N)cnn3c2)cn1 [Example 558]
Outgoing: 548

Incoming: Assign IC50 to the following record: COc1ccc(CN2CCN(c3ccc(-c4cc(-c5cnn(C)c5)cn5ncc(C#N)c45)cn3)CC2)cn1 [Example 474]
Outgoing: 305

Incoming: Assign IC50 to the following record: COc1ncc(F)cc1CN1CCN(c2ccc(-c3cc(-c4cnn(C)c4)cn4ncc(C#N)c34)cn2)CC1 [Example 457]
Outgoing: 877

Incoming: Assign IC50 to the following record: Cn1cc(-c2cc(-c3ccc(N4CCC5(CCCNC5)C4)nc3)c3c(C#N)cnn3c2)cn1 (stereo not shown) [Example 546, dihydrochloride]
Outgoing: 811

Moving on to another compound below.
Incoming: Assign IC50 to the following record: Cn1cc(-c2cc(-c3ccc(N4CCN(C5CCOC5)CC4)nc3)c3c(C#N)cnn3c2)cn1 (stereo not shown) [Example 505, bis(2,2,2-trifluoroacetate)]
Outgoing: 1300

====

Measured IC50 of individual entries
- experimentalTarget: human KDR protein in HEK-293 cells (Homo sapiens (Human), UniProt P35968)
- assayName: KDR Cell Assay (phospho-KDR in HEK-293 cells expressing inducible KDR)
- Assay type: cell-based
- conditionContext: pKDR Cell HEK 10% FBS IC50, HEK-293 cells expressing inducible KDR, VEGF stimulated, 10% FBS
Counter-ions that a name gives are not always drawn.
Return type: number; implicit unit µM.

For orientation, consider the following solved cases.
Incoming: Assign IC50 to the following record: `COCC(=O)NC1CCN(c2ccc(-c3cc(-c4cnn(C)c4)cn4ncc(C#N)c34)cn2)CC1`
Outgoing: 0.444

Incoming: Assign IC50 to the following record: `COCC(C)(C)C(=O)N1CCN(c2ccc(-c3cc(-c4cnn(C)c4)cn4ncc(C#N)c34)cn2)CC1`
Outgoing: 2.2

Incoming: Assign IC50 to the following record: Cn1cc(-c2cc(-c3ccc(N4CCN(C(=O)CNC(C)(C)C)CC4)nc3)c3c(C#N)cnn3c2)cn1 [Example 22, dihydrochloride]
Outgoing: 0.63

Incoming: Assign IC50 to the following record: Cn1cc(-c2cc(-c3ccc(N4CCCC5(CCN(C(=O)OC(C)(C)C)C5)C4)nc3)c3c(C#N)cnn3c2)cn1 (stereo not shown)
Outgoing: 4.68

Incoming: Assign IC50 to the following record: Cn1cc(-c2cc(-c3ccc(N4CCNCC4)nc3)c3c(C#N)cnn3c2)cn1 [Example 2, dihydrochloride]
Outgoing: 1.08

Incoming: Assign IC50 to the following record: Cn1cc(-c2cc(-c3ccc(N4CCN(C(=O)c5cnccn5)CC4)nc3)c3c(C#N)cnn3c2)cn1 [Example 38, trifluoroacetate]
Outgoing: 0.396

Incoming: Assign IC50 to the following record: `C[C@@H](O)C(=O)N1CCN(c2ccc(-c3cc(-c4cnn(C)c4)cn4ncc(C#N)c34)cn2)CC1`
Outgoing: 0.749

Incoming: Assign IC50 to the following record: `Cn1cc(-c2cc(-c3ccc(N4CCC(N5CC[C@H](O)C5=O)CC4)nc3)c3c(C#N)cnn3c2)cn1`
Outgoing: 0.277

Incoming: Assign IC50 to the following record: `Cn1cc(-c2cc(-c3ccc(N4CCN(S(C)(=O)=O)CC4)nc3)c3c(Cl)cnn3c2)cn1`
Outgoing: 0.207

Incoming: Assign IC50 to the following record: `Cn1cc(-c2cc(-c3ccc(N4CCN(C(=O)CC(C)(C)C)CC4)nc3)c3c(Cl)cnn3c2)cn1`
Outgoing: 2.35

***
Incoming: Assign IC50 to the following record: `CC(C)CNC(=O)N1CCN(c2ccc(-c3cc(-c4cnn(C)c4)cn4ncc(C#N)c34)cn2)CC1`
Outgoing: 0.147

Incoming: Assign IC50 to the following record: `CC(=O)N1CCN(c2ccc(-c3cc(-c4cnn(C)c4)cn4ncc(Cl)c34)cn2)CC1`
Outgoing: 0.566

Incoming: Assign IC50 to the following record: Cn1cc(-c2cc(-c3ccc(N4CCNCC4)nc3)c3c(Cl)cnn3c2)cn1 [Example 326, dihydrochloride]
Outgoing: 0.579

Incoming: Assign IC50 to the following record: `Cn1cc(-c2cc(-c3ccc(N4CCN(C(=O)[C@H](O)c5ccccc5)CC4)nc3)c3c(Cl)cnn3c2)cn1`
Outgoing: 0.606
